System: Candida parapsilosis
Experiment: Antifungal activity against Candida parapsilosis at 25 degC after 48 hrs by agar well diffusion assay
Type: functional
Calls of active or inactive are those of the source. No cut-off for these calls is given here.
Value Type: Activity

CCOC(=O)c1c(C(=O)Nc2cccc(F)c2)nn(-c2cccc([N+](=O)[O-])c2)c1-c1ccccc1: inactive
O=C(Nc1cccc(C(F)(F)F)c1)c1nn(-c2cccc([N+](=O)[O-])c2)c(-c2ccccc2)c1C(=O)Nc1cccc(C(F)(F)F)c1: inactive
CCOC(=O)c1c(C(=O)Nc2ccccc2F)nn(-c2cccc([N+](=O)[O-])c2)c1-c1ccccc1: inactive

###

Tested on: Staphylococcus aureus
Assay: Antibacterial activity against methicillin-resistant Staphylococcus aureus at 37 degC after 24 hrs by agar well diffusion assay
Format: functional
Active and inactive are the calls of the source. No cut-off for these calls is given here.
Value Type: Activity

O=C(Nc1cccc([N+](=O)[O-])c1)c1nn(-c2cccc([N+](=O)[O-])c2)c(-c2ccccc2)c1C(=O)Nc1cccc([N+](=O)[O-])c1: inactive
CCOC(=O)c1c(C(=O)Nc2ccccc2C(F)(F)F)nn(-c2cccc([N+](=O)[O-])c2)c1-c1ccccc1: inactive
Cc1cccc(NC(=O)c2nn(-c3cccc([N+](=O)[O-])c3)c(-c3ccccc3)c2C(=O)Nc2cccc(C)c2)c1: inactive
CCOC(=O)c1c(C(=O)Nc2cccc(C(F)(F)F)c2)nn(-c2cccc([N+](=O)[O-])c2)c1-c1ccccc1: inactive
CCOC(=O)c1c(C(=O)Nc2ccc(C(F)(F)F)cc2)nn(-c2cccc([N+](=O)[O-])c2)c1-c1ccccc1: inactive

Problem: State the recorded Activity for this entry: O=C(Nc1ccc(C(F)(F)F)cc1)c1nn(-c2cccc([N+](=O)[O-])c2)c(-c2ccccc2)c1C(=O)Nc1ccc(C(F)(F)F)cc1
Result: inactive

Problem: Quick one: Activity for CCNC(=S)NC(=O)c1nn(-c2cccc([N+](=O)[O-])c2)c(-c2ccccc2)c1C(=O)NC(=S)NCC ?
Result: inactive

Problem: Would you mind telling me what Activity value was observed for CO/N=C(\C(=O)N[C@@H]1C(=O)N2C(C(=O)O)=C(COC(C)=O)CS[C@H]12)c1csc(N)n1 [CEFOTAXIME] ?
Result: inactive
